experiment-summary: NCI Yeast Anticancer Drug Screen. Data for the mec2-1 strain (AID 157)
condition-notes: S. cerevisiae mec2-1 strain, at 50.0 µM (retest, dose inferred, filed as 5.0), hits give high values
About 79,000 compounds went through this panel and 15% of them were active in at least one assay; those are over-represented in the sample as a whole.
// reported growth inhibition for each item listed

>  <molecule>
CC(=O)/C(=C\c1ccco1)C(=O)Nc1ccccc1

>  <growth inhibition [%]>
21

$$$$
>  <molecule>
CCOC(=O)CC1C(=O)N(c2nc(-c3ccc(Br)cc3)cs2)N=C1C (stereo unspecified)

>  <growth inhibition [%]>
37

$$$$
>  <molecule>
Cc1ccc(S(=O)(=O)NNC2Oc3cc4c(cc3C(c3ccccc3O)C2C)OCO4)cc1 (stereo unspecified)

>  <growth inhibition [%]>
98

$$$$
>  <molecule>
[N-]=[N+]=Nc1c([N+](=O)[O-])c(Cl)nc2ccccc12

>  <growth inhibition [%]>
99

$$$$
>  <molecule>
S=C(N/N=C1/CCCC/C1=N/NC(=S)N1CCOCC1)N1CCOCC1

>  <growth inhibition [%]>
99

$$$$
>  <molecule>
Cc1ccc(NC(=O)CCc2nnc(N)n2N)cc1

>  <growth inhibition [%]>
4

$$$$
>  <molecule>
CC(=O)Nc1ccc(C(=O)NN2C(=O)C(Cl)C2c2cc(Br)cc(Br)c2O)cc1 (stereo unspecified)

>  <growth inhibition [%]>
5

$$$$
>  <molecule>
O=C1NC(Cc2ccccc2)C(=O)O1 (stereo unspecified)

>  <growth inhibition [%]>
-3

$$$$
>  <molecule>
O=C1/C(=C/c2ccc(Cl)cc2)CSC/C1=C\c1ccc(Cl)cc1

>  <growth inhibition [%]>
37

$$$$
>  <molecule>
Cc1ccc(Cc2nc(=S)[nH][nH]2)cc1

>  <growth inhibition [%]>
6

$$$$
>  <molecule>
OC(c1ccccc1)c1cccc2ccccc12 (stereo unspecified)

>  <growth inhibition [%]>
14

$$$$

The reported measurements were obtained from PubChem BioAssay (NCI).
